Please assign NOT MET whenever melting point is at or above 200 °C, and MET whenever it is below.

Take a look at these entries with their results.
Molecule: COc1ccccc1-c1cn([C@H]2CN3CCC2CC3)nn1
Label Class: MET

Molecule: O=Cc1ccc(-c2ccc(-c3cn([C@H]4CN5CCC4CC5)nn3)cc2)s1
Label Class: NOT MET

Molecule: OCc1cccc(-c2ccc(-c3cn([C@H]4CN5CCC4CC5)nn3)s2)c1
Label Class: MET

Molecule: CN1[C@@H]2CC[C@H]1C[C@@H](n1cc(-c3ccc4occc4c3)nn1)C2
Label Class: MET

Molecule: Cl.ClCc1ccc(-c2ccc(-c3cn([C@H]4CN5CCC4CC5)nn3)s2)cc1
Label Class: NOT MET

Challenge: Criterion: melting point strictly below 200 °C. Is it met by COc1ccc(-c2cn([C@H]3C[C@H]4CC[C@@H](C3)N4C)nn2)cc1 ?
Response given: MET

Challenge: Entry to check: Clc1ccc(-c2cn([C@H]3CN4CCC3CC4)nn2)cc1
Response given: MET

====

Observation Type: melting point (°C)
Your answer is read as °C, so omit the unit and give the number.

Molecule: FCc1ccc(-c2ccc(-c3cn([C@H]4CN5CCC4CC5)nn3)s2)cc1 [Compound 112]
Unit Symbol: °C
melting point: 199
--
Molecule: OCc1ccc(-c2ccc(-c3cn([C@H]4CN5CCC4CC5)nn3)cc2)s1 [Compound 114]
Unit Symbol: °C
melting point: 234
--
Molecule: c1ccc(-c2cn([C@H]3CN4CCC3CC4)nn2)cc1 [Compound 37]
Unit Symbol: °C
melting point: 132
--
Molecule: Nc1c(-c2ccccc2)nnn1[C@H]1CN2CCC1CC2 [Compound 60]
Unit Symbol: °C
melting point: 120

Challenge: Item Fc1ccc(-c2cn([C@H]3CN4CCC3CC4)nn2)cc1F [Compound 45] has what recorded melting point?
Response given: 122

Challenge: O=[N+]([O-])c1ccc(-c2ccc(-c3cn([C@H]4CN5CCC4CC5)nn3)s2)cn1 , same question.
Response given: 160

Challenge: Again, but for c1ccc(-c2cn(C3CCCN4CCCCC34)nn2)cc1 (stereo not drawn)
Response given: 150

Challenge: Now try c1cc(-c2ccc(-c3cn([C@H]4CN5CCC4CC5)nn3)s2)ccc1CN1CCCCC1 [Compound 103] .
Response given: 230

Challenge: What do you have for c1ccc(-c2ccc(-c3cn([C@H]4CN5CCC4CC5)nn3)s2)cc1 ?
Response given: 184

====

Observation Type: melting point (°C)
Provide only the numeric value, understood in °C.

Some solved cases for reference:
Molecule: c1cc(-c2ccc(-c3cn([C@H]4CN5CCC4CC5)nn3)s2)ccc1CN1CCOCC1
Unit Symbol: °C
Reported Result: 222

Molecule: CN1[C@@H]2CC[C@H]1C[C@@H](n1cc(-c3ccc(Br)s3)nn1)C2
Unit Symbol: °C
Reported Result: 138

Molecule: Fc1ccc(-c2cn(C3CCCN4CCCCC34)nn2)cc1 (stereo not drawn)
Unit Symbol: °C
Reported Result: 142

Molecule: COC(=O)c1ccc(-c2ccc(-c3cn([C@H]4CN5CCC4CC5)nn3)s2)cc1F
Unit Symbol: °C
Reported Result: 250

Molecule: OCc1ccc(-c2ccc(-c3cn([C@H]4CN5CCC4CC5)nn3)s2)cc1
Unit Symbol: °C
Reported Result: 253

Molecule: OCc1cccc(-c2cccc(-c3cn([C@H]4CN5CCC4CC5)nn3)c2)c1
Unit Symbol: °C
Reported Result: 201

Okay, next one:
Challenge: Name the reported melting point value associated with the molecule CN1[C@@H]2CC[C@H]1C[C@@H](n1cc(-c3ccc(F)cc3)nn1)C2
Response given: 254

The reported numbers originate from patent US10059704B2.
